Collected inhibition (INH) values appear next to each entry.
System: Rattus norvegicus
Run Description: Decrease in uterine wet weight of CD-IGS rat at 1 mg/kg, po qd followed 15 mins later administration of 0.1 mg/kg, po 17alpha-ethynylestradiol for 3 consecutive days
Format: functional

Cpd Smiles	Quantity Unit	inhibition (INH)
N#Cc1cc(F)ccc1/C(=C(\c1ccc(/C=C/C(=O)O)cc1)c1ccc2[nH]nc(F)c2c1)C1CCC1	%	57
CS(=O)(=O)c1cc(Cl)ccc1/C(=C(\c1ccc(/C=C/C(=O)O)cc1)c1ccc2[nH]nc(F)c2c1)C1CCC1	%	94
O=C(O)/C=C/c1ccc(/C(=C(\c2ncccc2Cl)C2CCC2)c2ccc3[nH]nc(F)c3c2)cc1	%	83
N#Cc1cnccc1/C(=C(\c1ccc(/C=C/C(=O)O)cc1)c1ccc2[nH]nc(F)c2c1)C1CCC1	%	22
O=C(O)/C=C/c1ccc(/C(=C(\c2ncc(C(F)(F)F)cc2Cl)C2CCC2)c2ccc3[nH]nc(F)c3c2)cc1	%	77
N#Cc1cc(Cl)ccc1/C(=C(\c1ccc(/C=C/C(=O)O)cc1)c1ccc2[nH]nc(F)c2c1)C1CCC1	%	87
N#Cc1cc(C(F)(F)F)ccc1/C(=C(\c1ccc(/C=C/C(=O)O)cc1)c1ccc2[nH]nc(F)c2c1)C1CCC1	%	75
COc1ccc(/C(=C(\c2ccc(/C=C/C(=O)O)cc2)c2ccc3[nH]nc(F)c3c2)C2CCC2)c(C#N)c1	%	82
COc1ccc(/C(=C(\c2ccc(/C=C/C(=O)O)cc2)c2ccc3[nH]nc(F)c3c2)C2CCC2)c(Cl)c1	%	90
O=C(O)/C=C/c1ccc(/C(=C(\c2ccccc2)C2CCC2)c2ccc3[nH]nc(F)c3c2)cc1	%	81
O=C(O)/C=C/c1ccc(/C(=C(\c2ccccc2Cl)C2CCC2)c2ccc3[nH]nc(F)c3c2)cc1	%	82
CC/C(=C(/c1ccc(/C=C/C(=O)O)cc1)c1ccc2[nH]ncc2c1)c1ccc(F)cc1Cl	%	79
N#Cc1ccc(/C(=C(\c2ccc(/C=C/C(=O)O)cc2)c2ccc3[nH]nc(F)c3c2)C2CCC2)c(Cl)c1	%	85
CS(=O)(=O)c1ccc(/C(=C(\c2ccc(/C=C/C(=O)O)cc2)c2ccc3[nH]nc(F)c3c2)C2CCC2)c(Cl)c1	%	29
O=C(O)/C=C/c1ccc(/C(=C(\c2ncc(Cl)cc2Cl)C2CCC2)c2ccc3[nH]nc(F)c3c2)cc1	%	80
O=C(O)/C=C/c1ccc(/C(=C(\c2ccncc2Cl)C2CCC2)c2ccc3[nH]nc(F)c3c2)cc1	%	74

###

System: MCF7
Run Description: Decrease in estrogen receptor alpha level in human MCF7 cells after 4 hrs by in-cell western assay
Type: functional, cell-based
Experimental Setup: MCF7, 4 h
pEC50: −log10 of the molar value.
Decision: pEC50 >= 8 yields Fulfilled, all other cases yield Not fulfilled.

Cpd Smiles	Class
CC/C(=C(/c1ccc(/C=C/C(=O)O)cc1)c1cc2cn[nH]c2cc1Cl)c1ccccc1	Not fulfilled
CC/C(=C(/c1ccc(/C=C/C(=O)O)cc1)c1ccc2[nH]nc(Cl)c2c1)c1ccccc1	Not fulfilled
CC/C(=C(/c1ccc(/C=C/C(=O)O)cc1)c1ccc2[nH]nc(C)c2c1)c1ccccc1	Not fulfilled
CC/C(=C(/c1ccc(/C=C/C(=O)O)cc1)c1ccc2[nH]ncc2n1)c1ccccc1	Not fulfilled
N#Cc1cnccc1/C(=C(\c1ccc(/C=C/C(=O)O)cc1)c1ccc2[nH]nc(F)c2c1)C1CCC1	Fulfilled
CC/C(=C(/c1ccc(/C=C/C(=O)O)cc1)c1ccc2[nH]ncc2c1OC)c1ccccc1	Not fulfilled

###

Test system: MCF7
Run Description: Decrease in estrogen receptor alpha level in human MCF7 cells after 4 hrs by in-cell western assay
Format: functional, cell-based
Experimental Setup: MCF7, 4 h

Cpd Smiles	EC50
N#Cc1ccc(/C(=C(\c2ccc(/C=C/C(=O)O)cc2)c2ccc3[nH]nc(F)c3c2)C2CCC2)c(Cl)c1	0.3 nM
CS(=O)(=O)c1cc(Cl)ccc1/C(=C(\c1ccc(/C=C/C(=O)O)cc1)c1ccc2[nH]nc(F)c2c1)C1CCC1	0.3 nM
CC/C(=C(/c1ccc(/C=C/C(=O)O)cc1)c1cnc2[nH]ncc2c1)c1ccccc1	116 nM
O=C(O)/C=C/c1ccc(/C(=C(\c2ccccn2)C2CCC2)c2ccc3[nH]nc(F)c3c2)cc1	7.6 nM

###

Test system: MCF7
Run Description: Decrease in estrogen receptor alpha level in human MCF7 cells after 4 hrs by in-cell western assay relative to fulvestrant
Assay type: functional
Experimental Setup: MCF7, 4 h

Molecule	Emax / %
O=C(O)/C=C/c1ccc(/C(=C(/CCF)c2ccccc2)c2ccc3[nH]ncc3c2)cc1	91
O=C(O)/C=C/c1ccc(/C(=C(\c2ncc(Cl)cc2Cl)C2CCC2)c2ccc3[nH]nc(F)c3c2)cc1	91
CS(=O)(=O)c1ccc(/C(=C(\c2ccc(/C=C/C(=O)O)cc2)c2ccc3[nH]nc(F)c3c2)C2CCC2)c(Cl)c1	91
C[C@]12CC[C@@H]3c4ccc(O)cc4C[C@@H](CCCCCCCCC[S+]([O-])CCCC(F)(F)C(F)(F)F)[C@H]3[C@@H]1CC[C@@H]2O (stereo partly drawn) [FULVESTRANT]	100
O=C(O)/C=C/c1ccc(/C(=C(\c2ccccc2)C(F)(F)F)c2ccc3[nH]ncc3c2)cc1	92
O=C(O)/C=C/c1ccc(/C(=C(\c2ccccn2)C2CCC2)c2ccc3[nH]nc(F)c3c2)cc1	90
N#Cc1cc(Cl)ccc1/C(=C(\c1ccc(/C=C/C(=O)O)cc1)c1ccc2[nH]nc(F)c2c1)C1CCC1	94
O=C(O)/C=C/c1ccc(/C(=C(\c2ccccc2)C(F)F)c2ccc3[nH]ncc3c2)cc1	91
COCC/C(=C(/c1ccc(/C=C/C(=O)O)cc1)c1ccc2[nH]ncc2c1)c1ccccc1	92
COC/C(=C(/c1ccc(/C=C/C(=O)O)cc1)c1ccc2[nH]ncc2c1)c1ccccc1	86
N#Cc1cc(Cl)cnc1/C(=C(\c1ccc(/C=C/C(=O)O)cc1)c1ccc2[nH]nc(F)c2c1)C1CCC1	93
C/C(=C(/c1ccc(/C=C/C(=O)O)cc1)c1ccc2[nH]ncc2c1)c1ccccc1	92
CC/C(=C(/c1ccc(/C=C/C(=O)O)cc1)c1ccc2[nH]ncc2c1)c1ccccc1	90
COc1ccc(/C(=C(\c2ccc(/C=C/C(=O)O)cc2)c2ccc3[nH]nc(F)c3c2)C2CCC2)c(C#N)c1	94
O=C(O)/C=C/c1ccc(/C(=C(\c2ccncc2Cl)C2CCC2)c2ccc3[nH]nc(F)c3c2)cc1	90
N#Cc1ccc(/C(=C(\c2ccc(/C=C/C(=O)O)cc2)c2ccc3[nH]nc(F)c3c2)C2CCC2)c(Cl)c1	93
O=C(O)/C=C/c1ccc(/C(=C(\c2ccccc2)C2CC2)c2ccc3[nH]ncc3c2)cc1	89
O=C(O)/C=C/c1ccc(/C(=C(\c2ccc(F)cc2Cl)C2CCC2)c2ccc3[nH]nc(F)c3c2)cc1	91
CC/C(=C(/c1ccc(/C=C/C(=O)O)cc1)c1ccc2[nH]nc(F)c2c1)c1ccccc1	90
CCCC/C(=C(/c1ccc(/C=C/C(=O)O)cc1)c1ccc2[nH]ncc2c1)c1ccccc1	92
N#Cc1cnccc1/C(=C(\c1ccc(/C=C/C(=O)O)cc1)c1ccc2[nH]nc(F)c2c1)C1CCC1	92
CC(C)/C(=C(/c1ccc(/C=C/C(=O)O)cc1)c1ccc2[nH]ncc2c1)c1ccccc1	91
O=C(O)/C=C/c1ccc(/C(=C(\c2ccccc2Cl)C2CCC2)c2ccc3[nH]nc(F)c3c2)cc1	90
N#Cc1cc(F)ccc1/C(=C(\c1ccc(/C=C/C(=O)O)cc1)c1ccc2[nH]nc(F)c2c1)C1CCC1	92
CC/C(=C(/c1ccc(/C=C/C(=O)O)cc1)c1cc(F)c2[nH]ncc2c1)c1ccccc1	92
Cc1cccnc1/C(=C(\c1ccc(/C=C/C(=O)O)cc1)c1ccc2[nH]nc(F)c2c1)C1CCC1	88
CC/C(=C(/c1ccc(/C=C/C(=O)O)cc1)c1cc(Cl)c2[nH]ncc2c1)c1ccccc1	92
CS(=O)(=O)c1cc(Cl)ccc1/C(=C(\c1ccc(/C=C/C(=O)O)cc1)c1ccc2[nH]nc(F)c2c1)C1CCC1	91
CC/C(=C(/c1ccc(/C=C/C(=O)O)cc1)c1ccc2[nH]ncc2c1)c1ccc(F)cc1Cl [BRILANESTRANT]	90
O=C(O)/C=C/c1ccc(/C(=C(/CCCl)c2ccccc2)c2ccc3[nH]ncc3c2)cc1	90
CC/C(=C(/c1ccc(/C=C/C(=O)O)cc1)c1ccc2[nH]ncc2c1OC)c1ccccc1	91
CC/C(=C(/c1ccc(/C=C/C(=O)O)cc1)c1ccc2[nH]ncc2c1Cl)c1ccccc1	93
N#Cc1cc(C(F)(F)F)ccc1/C(=C(\c1ccc(/C=C/C(=O)O)cc1)c1ccc2[nH]nc(F)c2c1)C1CCC1	94

###

Collected pEC50 values appear next to each entry.
Test system: MCF7
Run Description: Decrease in estrogen receptor alpha level in human MCF7 cells after 4 hrs by in-cell western assay
Type: functional, cell-based
Experimental Setup: MCF7, 4 h
pEC50: −log10 of the molar value.

Cpd Smiles	pEC50
N#Cc1cc(Cl)ccc1/C(=C(\c1ccc(/C=C/C(=O)O)cc1)c1ccc2[nH]nc(F)c2c1)C1CCC1	9.52
CC/C(=C(/c1ccc(/C=C/C(=O)O)cc1)c1cc2cn[nH]c2cc1C)c1ccccc1	6.57
O=C(O)/C=C/c1ccc(/C(=C(\c2ccccc2)C2CCC2)c2ccc3[nH]ncc3c2)cc1	9.52
COCC/C(=C(/c1ccc(/C=C/C(=O)O)cc1)c1ccc2[nH]ncc2c1)c1ccccc1	7.33
